Quick reference: half-life at 1 µM of the listed items.
Assay: Half life in mouse liver microsomes at 1 uM

[
  {
    "SMILES STRING": "ClCCc1cnc(Cl)nc1Cl",
    "UNITS SYMBOL": "min",
    "half-life at 1 µM": 34
  },
  {
    "SMILES STRING": "Cc1nc(Cl)nc(Cl)c1CCCl",
    "UNITS SYMBOL": "min",
    "half-life at 1 µM": 46
  }
]

---

# Lookup of reported half-life at 1 µM keyed by entry
Assay: Half life in rat liver microsomes at 1 uM
ATTRIBUTE MEASURED: half-life at 1 µM (h)

[
  {
    "SMILES STRING": "Cc1nc(Cl)nc(Cl)c1CCCl",
    "OBSERVED": 2.23
  },
  {
    "SMILES STRING": "ClCCc1cnc(Cl)nc1Cl",
    "OBSERVED": 2.23
  }
]

The origin of these recorded values is ChEMBL document CHEMBL1949598.
